These measurements were taken from ChEMBL document CHEMBL1201862.

Test system: UACC-62
assay-text: NCI tumour cell line growth inhibition, 48 h
Activity calls are given as the source filed them. Cut-off read from the data, not from the text of the source: active = GI50 up to about 1.1 µM and inactive = higher.
Items are presented alongside their recorded GI50.

{"compound": "NC(=O)N/N=C/c1ccccc1O", "GI50": "> 100 µM (inactive)"}
{"compound": "Cc1cc(OCC(O)CO)ccc1Cl (stereo not drawn)", "GI50": "> 100 µM (inactive)"}
{"compound": "COC(=O)[C@]12CCC(C)[C@H](C)[C@H]1C1=CCC3[C@@]4(C)CC[C@H](OC(C)=O)C(C)(C)C4CC[C@@]3(C)C1(C)C(O)C2 (stereo partly drawn)", "GI50": "> 100 µM (inactive)"}
{"compound": "CC(=O)OC1=CC2=CC[C@H]3[C@@H]4CCC(=O)[C@@]4(C)CC(=O)[C@]3(S)[C@@]2(C)CC1", "GI50": "26.1 µM (inactive)"}
{"compound": "C=C1C2CC(OC(C)=O)C3(C)C(c4ccoc4)OC(=O)[C@@H](O)[C@]13OC1C[C@H](OC(C)=O)C(C)(C)[C@H](CC(=O)OC)[C@]12C (stereo partly drawn)", "GI50": "> 100 µM (inactive)"}
{"compound": "Nc1c(Br)cc(-c2cc(Br)c(N)c(Br)c2)cc1Br", "GI50": "> 100 µM (inactive)"}
{"compound": "Clc1cccc2[nH]ncc12", "GI50": "> 100 µM (inactive)"}
{"compound": "O=C(CC(=O)CC(O)(C(F)(F)F)C(F)(F)F)CC(O)(C(F)(F)F)C(F)(F)F", "GI50": "> 10 µM (inactive)"}
